target: T1, human recombinant melanocortin-4 receptor (human, UniProt P32245 1-332); assay: competitive inhibition of [I125]-NDP-α-MSH, hMC4-R HEK-293 membranes
T1 construct: whole, on cells; cAMP assays used the whole cells; also called hMC4-R; MC4-R
T1 sequence (P32245 whole entry): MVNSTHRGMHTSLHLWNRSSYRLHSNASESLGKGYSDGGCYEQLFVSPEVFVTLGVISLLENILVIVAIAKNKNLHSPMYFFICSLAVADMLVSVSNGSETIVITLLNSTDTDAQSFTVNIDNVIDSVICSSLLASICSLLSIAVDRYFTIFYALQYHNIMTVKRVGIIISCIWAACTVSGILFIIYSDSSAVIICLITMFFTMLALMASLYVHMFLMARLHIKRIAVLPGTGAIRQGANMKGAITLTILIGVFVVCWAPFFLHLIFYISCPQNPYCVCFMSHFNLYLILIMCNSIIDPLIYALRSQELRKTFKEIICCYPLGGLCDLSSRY
Numbered stars: 1 amine (or outer) side, 2 acyl side, 3 side chain; on linkers, the order of the positions; unused ones are H or OH. Bridge positions count the residues as written; N and C are the ends. Square brackets hold non-standard residues; d marks the D form. Hyp(Bzl) = O-benzyl-hydroxyproline, O=C([C@@H]1C[C@@H](OCc2ccccc2)CN1[*:1])[*:2]; Met(O) = CS(=O)CC[C@H](N)C(=O)O; Orn = NCCC[C@H](N)C(=O)O
test.readout: pKi
pKi is a log-scale quantity: -log10 of the concentration expressed in molar.

Some binders with known pKi results, for comparison:
* Ac-RE[Met(O)][dF]RW[Orn]-NH2 (lactam 2-7, also called peptide No. 111) [Ac-Arg-cyclo(Glu-Met(═O)-D-Phe-Arg-Trp-Orn)-NH2] | 8.05
* Ac-R[Orn]H[dF]RWE-NH2 (lactam 2-7, also called peptide No. 75) [Ac-Arg-cyclo(Orn-His-D-Phe-Arg-Trp-Glu)-NH2] | 9.22
* Ac-RDQ[dF]RWK-OH (lactam 2-7, also called peptide No. 57) [Ac-Arg-cyclo(Asp-Gln-D-Phe-Arg-Trp-Lys)-OH] | 6.94
* XXNFRWE (HELM PEPTIDE1{[ac].[Orn].[Orn].N.[dF].R.W.E.[am]}$PEPTIDE1,PEPTIDE1,3:R3-8:R3$$$V2.0; SMILES CC(=O)N[C@@H](CCCN)C(=O)N[C@H]1CCCNC(=O)CC[C@@H](C(N)=O)NC(=O)[C@H](Cc2c[nH]c3ccccc23)NC(=O)[C@H](CCCNC(=N)N)NC(=O)[C@@H](Cc2ccccc2)NC(=O)[C@H](CC(N)=O)NC1=O, also called peptide No. 158) [Ac-Orn-cyclo(Orn-Asn-D-Phe-Arg-Trp-Glu)-NH2] | 7.30

Moving on to another binder below.
Task: Name the reported pKi value associated with the binder Ac-RD[Hyp(Bzl)][dF]RWK-OH (lactam 2-7, also called peptide No. 54) [Ac-Arg-cyclo(Asp-Hyp(Bzl)-D-Phe-Arg-Trp-Lys)-OH]
Result: 8.52

Data origin, for the record: patent US20120178701A1
